Value source: BindingDB's records for doi:10.1021/acs.jmedchem.8b01201

- target: Proteasome subunit beta type-1 (Homo sapiens)
- Sequence (P20618 whole entry): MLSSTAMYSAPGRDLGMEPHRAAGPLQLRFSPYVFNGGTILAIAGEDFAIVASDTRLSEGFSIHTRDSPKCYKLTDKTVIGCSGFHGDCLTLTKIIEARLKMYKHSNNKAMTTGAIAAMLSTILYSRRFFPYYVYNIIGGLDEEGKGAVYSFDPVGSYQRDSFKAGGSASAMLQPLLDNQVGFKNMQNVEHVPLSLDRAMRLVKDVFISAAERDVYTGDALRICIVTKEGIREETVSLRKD
- assay: Inhibition of 20S proteosome beta 1 in human MOLT4 cells by ELISA
pIC50: −log10 of the molar value.
experimental_endpoint: pIC50

[Q] Item under review: COc1ccc(C[C@H](NC(=O)[C@@H](C)NC(=O)[C@H]2CC[C@H](O)CC2)C(=O)N[C@@H](Cc2ccccc2)C(=O)[C@@]2(C)CO2)cc1 . Reported pIC50?
[A] < 4.60

---

- assay: Inhibition of 20S proteosome beta 1 in human MOLT4 cells by ELISA
experimental_endpoint: IC50

[Q] Item under review: CC(C)C[C@H](NC(=O)CN1CCCCCC1)C(=O)N[C@@H](Cc1ccccc1)C(=O)N[C@@H](Cc1ccccc1)C(=O)[C@@]1(C)CO1 . Reported IC50?
[A] > 250 µM

[Q] Item under review: COc1ccc(C[C@H](NC(=O)[C@@H](C)NC(=O)[C@H]2CC[C@H](O)CC2)C(=O)N[C@@H](CC2=CCCC2)C(=O)[C@@]2(C)CO2)cc1 . Reported IC50?
[A] > 25 µM

[Q] Item under review: Cc1ccc(CC[C@H](NC(=O)[C@H](Cc2ccccc2)NC(=O)[C@H](CC(C)C)NC(=O)CN2CCCCCC2)C(=O)[C@@]2(C)CO2)cc1 . Reported IC50?
[A] > 25 µM

[Q] Item under review: COc1ccc([C@@H](O)[C@H](NC(=O)[C@H](C)NC(=O)CN2CCOCC2)C(=O)N[C@@H](CC2=CCCC2)C(=O)[C@@]2(C)CO2)cc1 . Reported IC50?
[A] > 10.6 µM
